target: RSV prefusion F (preF), subtype A (respiratory syncytial virus, subtype A, UniProt P03420 26-513); assay: BLI, IgG
pKd: −log10 of the molar value.
Below, each of the binders is paired with its reported pKd value.
readoutType: pKd

ADI-14590 (antibody, V domains shown) VH: EVQLVESGAEVKKPGESLKISCKGSGYSFATYWIGWVRQMPGKGLEWMGIIYPGDSDTRYSPSFQGQVTISADKSISTAYLQWSSLKASDTAIYYCARAKLPVAGLYYFDYWGQGTLVTVSS VL: DIQLTQSPSSLSASVGDRVTITCRASQGISSTLAWYQQKPGKAPKLLIYDASSLESGVPSRFSGSGSGTDFTLTISSLHPEDFATYYCQQFNTYPTFGGGTKVEIK | 7.88
ADI-14416 (antibody, V domains shown, also called Ab 82) VH: QVQLVQSGAEVKKPGESLKISCKGSGDTFSRNWIGWVRQMPGKGLEWMGIIWPGDSDTRYRQFFQGQQGQVIISVDKSISTAYLQWSSLKASDTATYYCATSPYGLGSYYEHWGQGTLVTVSS VL: NFMLTQPHSLSDSPGKTVVISCTRSSGSIASNYVQWYQQRPGSAPTTVIYEDNQRPSGVPDRFSGSIDSSSNSASLTISGLKTEDEADYYCQSYDSSNPYVFGTGTKVTVL | 8.62
ADI-14607 (antibody, V domains shown) VH: EVQLLESGGGVVQSGRSLRLSCAASGFTFNNYAMHWVRQAPGKGLEWVAVISFDGGNKFYGDSVQGRFTISRDNSKNTLYLQTNSLRPEDTAVYYCARDRWEIQIGLDIWGQGTTVTVSS VL: SYVLTQPPSVSVSPGQTARITCSGDALARQNAYWYQQKPGQAPVLVMYRDTGRPSGIPERFSGSSSGTTVTLTISEVQAEDEADYYCQSADSSGAYVFGTGTKVTVL | 8.77
